assay: In vivo pharmacokinetic test in mice; set-up: species or system male CD-1 mice; details: PO dose of 10 mL/kg
reported metric: Time of peak concentration Tmax (min)

> print(dat)
                                   compound                  reported.metric  readout.units  endpoint.result
1  O=C(Nc1cnn2ccc(N3CCC[C@@H]3c3cc(F)ccc3F)nc12)N1CC[C@H](O)C1 [LOXO-101, Larotrectinib, reference compound]  Time of peak concentration Tmax            min             22.8
2  O=C1NC2(CC2)COc2ccc(F)cc2[C@H]2CCON2c2ccn3ncc1c3n2 (single isomer, unassigned) [WX003A]  Time of peak concentration Tmax            min             22.8
3  C[C@@H]1CCc2ncc(F)cc2[C@H]2CCCN2c2ccn3ncc(c3n2)C(=O)N1 [LOXO-195, reference compound]  Time of peak concentration Tmax            min             22.8
4  O=C1NC2(CC2)COc2ncc(F)cc2[C@H]2CCON2c2ccn3ncc1c3n2 [WX002A]  Time of peak concentration Tmax            min               30

====

assay: In vivo pharmacokinetic test in mice; design: species or system male CD-1 mice; details: IV dose of 3 mg/kg
reported metric: Apparent clearance Cl (mL/min/kg)

Please review the following examples before continuing.
> print(dat)
                                   compound  endpoint.result
1  O=C1N[C@@H]2COCC[C@@H]2Oc2ncc(F)cc2[C@H]2CCON2c2ccn3ncc1c3n2 [WX010B]              8.4
2  C[C@@H]1COc2ncc(F)cc2[C@H]2CCON2c2ccn3ncc(c3n2)C(=O)N1 [WX004A]             10.4

(1) O=C1NC2(CC2)COc2ccc(F)cc2[C@H]2CCON2c2ccn3ncc1c3n2 (single isomer, unassigned) [WX003A]
(2) O=C1N[C@@H]2CCC[C@@H]2Oc2ncc(F)cc2[C@H]2CCON2c2ccn3ncc1c3n2 [WX007A]
Prompt line: Could you determine which record has the numerically smaller Apparent clearance Cl? Candidates: 1 and 2 Give the label under which the chosen entry appears.
Response line: 2

====

experiment: In vivo pharmacokinetic test in mice; parameters: species or system male CD-1 mice; conditions: PO dose of 10 mL/kg
reported metric: Area under the curve AUC0-last (µM·h)

// known answers, use as guide
> print(dat)
                                   molecule                 reported.metric  endpoint.result
1  C[C@@H]1CCc2ncc(F)cc2[C@H]2CCCN2c2ccn3ncc(c3n2)C(=O)N1 [LOXO-195, reference compound]  Area under the curve AUC0-last           27.344
2  O=C1NC2(CC2)COc2ncc(F)cc2[C@H]2CCON2c2ccn3ncc1c3n2 [WX002A]  Area under the curve AUC0-last           29.787

(1) O=C1NC2(CC2)COc2ccc(F)cc2[C@H]2CCON2c2ccn3ncc1c3n2 (single isomer, unassigned) [WX003A]
(2) O=C(Nc1cnn2ccc(N3CCC[C@@H]3c3cc(F)ccc3F)nc12)N1CC[C@H](O)C1 [LOXO-101, Larotrectinib, reference compound]
Prompt line: Compare Area under the curve AUC0-last: is it lower for 1 or for 2 ? Returns: label corresponding to the selected item.
Response line: 2
(2: 2.89 µM·h, 1: 27.967 µM·h)

====

target: Ba/F3 SLC34A2-ROS1-G2032R stably transfected cell line (Homo sapiens, UniProt P08922, G2032R, cells depend on it); construct: fused on or other part: O95436 (Sodium-dependent phosphate transport protein 2B); assay: Cell proliferation inhibition (CellTiter-Glo); assay type: cell-based; settings: 72 hours, read-out: The half maximal inhibitory concentration IC50 against cells, Ba/F3 SLC34A2-ROS1-G2032R
Sequence (P08922 whole entry G2032R, the tested form may be a part): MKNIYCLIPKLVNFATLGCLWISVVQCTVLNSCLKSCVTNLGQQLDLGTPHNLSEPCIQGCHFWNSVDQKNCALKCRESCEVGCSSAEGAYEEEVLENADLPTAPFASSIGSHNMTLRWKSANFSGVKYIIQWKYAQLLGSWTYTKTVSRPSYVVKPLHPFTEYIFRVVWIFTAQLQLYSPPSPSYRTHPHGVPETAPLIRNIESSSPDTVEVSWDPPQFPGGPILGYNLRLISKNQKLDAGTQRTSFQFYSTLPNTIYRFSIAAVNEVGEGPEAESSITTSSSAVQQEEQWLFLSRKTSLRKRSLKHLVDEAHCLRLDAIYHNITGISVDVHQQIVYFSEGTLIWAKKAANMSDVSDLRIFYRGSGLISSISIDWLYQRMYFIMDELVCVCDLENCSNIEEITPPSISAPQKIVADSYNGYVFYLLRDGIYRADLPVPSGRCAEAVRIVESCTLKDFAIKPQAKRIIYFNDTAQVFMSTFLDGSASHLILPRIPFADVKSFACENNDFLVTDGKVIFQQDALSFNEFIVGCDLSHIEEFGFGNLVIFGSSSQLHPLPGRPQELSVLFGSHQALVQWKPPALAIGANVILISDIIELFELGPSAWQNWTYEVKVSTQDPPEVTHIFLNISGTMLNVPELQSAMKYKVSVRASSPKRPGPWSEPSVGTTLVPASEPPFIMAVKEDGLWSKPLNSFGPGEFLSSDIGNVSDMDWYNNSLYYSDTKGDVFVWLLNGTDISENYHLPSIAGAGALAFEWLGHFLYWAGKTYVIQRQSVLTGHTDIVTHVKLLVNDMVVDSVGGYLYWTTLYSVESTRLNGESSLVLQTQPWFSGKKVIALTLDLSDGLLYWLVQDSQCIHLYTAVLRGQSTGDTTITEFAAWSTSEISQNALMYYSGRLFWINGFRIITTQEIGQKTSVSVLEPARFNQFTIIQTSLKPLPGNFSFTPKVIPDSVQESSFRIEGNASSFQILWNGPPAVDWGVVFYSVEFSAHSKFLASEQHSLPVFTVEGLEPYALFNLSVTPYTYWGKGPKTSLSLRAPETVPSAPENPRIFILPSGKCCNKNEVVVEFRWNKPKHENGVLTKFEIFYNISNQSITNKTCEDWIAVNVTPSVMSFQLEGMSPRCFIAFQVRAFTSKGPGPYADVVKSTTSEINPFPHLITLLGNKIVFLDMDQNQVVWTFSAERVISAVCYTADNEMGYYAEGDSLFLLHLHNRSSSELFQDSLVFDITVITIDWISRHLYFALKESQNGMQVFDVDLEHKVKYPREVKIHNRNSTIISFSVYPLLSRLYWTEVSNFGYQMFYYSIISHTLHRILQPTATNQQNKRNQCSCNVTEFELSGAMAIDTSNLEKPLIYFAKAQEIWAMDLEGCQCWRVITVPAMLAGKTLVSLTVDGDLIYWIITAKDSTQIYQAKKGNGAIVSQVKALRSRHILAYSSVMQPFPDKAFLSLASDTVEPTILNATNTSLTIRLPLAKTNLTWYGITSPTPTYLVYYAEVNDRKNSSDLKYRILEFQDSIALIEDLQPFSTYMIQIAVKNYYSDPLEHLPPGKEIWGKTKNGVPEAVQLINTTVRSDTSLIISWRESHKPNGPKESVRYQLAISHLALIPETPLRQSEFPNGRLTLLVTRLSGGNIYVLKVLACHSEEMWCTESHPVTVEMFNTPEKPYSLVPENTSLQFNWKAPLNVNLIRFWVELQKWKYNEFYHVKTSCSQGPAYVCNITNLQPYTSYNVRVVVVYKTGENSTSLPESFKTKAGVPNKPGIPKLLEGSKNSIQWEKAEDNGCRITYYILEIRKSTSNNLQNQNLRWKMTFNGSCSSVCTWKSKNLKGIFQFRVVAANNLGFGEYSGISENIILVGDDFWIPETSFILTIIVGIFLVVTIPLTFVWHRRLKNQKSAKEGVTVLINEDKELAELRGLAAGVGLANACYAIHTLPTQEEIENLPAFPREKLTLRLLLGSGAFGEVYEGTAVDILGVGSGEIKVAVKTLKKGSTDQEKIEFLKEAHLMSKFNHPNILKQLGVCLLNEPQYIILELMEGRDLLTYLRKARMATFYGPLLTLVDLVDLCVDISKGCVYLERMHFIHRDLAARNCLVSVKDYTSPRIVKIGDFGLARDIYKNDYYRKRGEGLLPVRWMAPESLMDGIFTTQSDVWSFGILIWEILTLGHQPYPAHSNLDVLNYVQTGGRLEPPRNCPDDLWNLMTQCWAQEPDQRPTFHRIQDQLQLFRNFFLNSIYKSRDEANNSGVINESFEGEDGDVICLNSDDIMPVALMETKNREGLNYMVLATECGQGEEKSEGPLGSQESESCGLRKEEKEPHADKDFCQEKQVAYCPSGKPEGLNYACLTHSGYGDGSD
reported metric: GI50 (µM)

> print(dat)
                                   compound  readout.units  endpoint.result
1  O=C1NC2(CC2)COc2ncc(F)cc2[C@H]2CCON2c2ccn3ncc1c3n2 [WX002A]             µM           0.0161

(I) C[C@H]1CNC(=O)c2cnn3ccc(nc23)N2OCC[C@@H]2c2cc(F)cnc2O1 [WX005B]
(II) O=C1N[C@@H]2COCC[C@@H]2Oc2ncc(F)cc2[C@H]2CCON2c2ccn3ncc1c3n2 [WX010B]
(III) O=C1N[C@@H]2CCC[C@@H]2Oc2ncc(F)cc2[C@H]2CCON2c2ccn3ncc1c3n2 [WX007A]
(IV) O=C1N[C@@H]2COC[C@@H]2Oc2ncc(F)cc2[C@H]2CCON2c2ccn3ncc1c3n2 [WX008A]
Prompt line: Sort ascending by GI50. Provide your answer as the labels ordered per the instruction.
Response line: IV, II, III, I

====

molecular target: Ba/F3 LMNA-NTRK1-WT stably transfected cell line (Homo sapiens); construct: fused on or other part: P02545 (Prelamin-A/C); test: Cell proliferation inhibition (CellTiter-Glo); format: cell-based; details: 72 hours, read-out: The half maximal inhibitory concentration IC50 against cells, Ba/F3 LMNA-NTRK1-WT
Sequence (P04629 whole entry, stated change not applied, the tested form may be a part): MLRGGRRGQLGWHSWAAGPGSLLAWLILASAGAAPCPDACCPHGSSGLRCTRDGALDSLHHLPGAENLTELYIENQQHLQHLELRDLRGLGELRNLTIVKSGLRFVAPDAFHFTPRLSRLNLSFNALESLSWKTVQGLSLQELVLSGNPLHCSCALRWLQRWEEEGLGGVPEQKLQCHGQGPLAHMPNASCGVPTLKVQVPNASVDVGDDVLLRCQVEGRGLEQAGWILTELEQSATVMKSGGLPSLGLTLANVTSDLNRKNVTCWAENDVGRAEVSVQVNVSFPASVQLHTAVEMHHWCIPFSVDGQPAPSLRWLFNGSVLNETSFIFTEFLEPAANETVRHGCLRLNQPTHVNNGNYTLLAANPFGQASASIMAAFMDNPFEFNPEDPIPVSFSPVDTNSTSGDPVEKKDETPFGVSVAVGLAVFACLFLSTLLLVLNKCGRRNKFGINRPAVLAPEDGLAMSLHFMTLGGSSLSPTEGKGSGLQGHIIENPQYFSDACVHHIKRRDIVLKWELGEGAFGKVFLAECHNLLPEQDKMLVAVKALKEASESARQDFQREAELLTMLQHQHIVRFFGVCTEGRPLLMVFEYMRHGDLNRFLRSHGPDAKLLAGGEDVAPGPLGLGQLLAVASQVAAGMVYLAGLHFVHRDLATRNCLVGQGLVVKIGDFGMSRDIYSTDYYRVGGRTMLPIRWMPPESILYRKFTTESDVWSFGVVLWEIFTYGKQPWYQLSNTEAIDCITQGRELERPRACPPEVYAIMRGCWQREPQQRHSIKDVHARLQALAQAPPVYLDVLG
reported metric: GI50 (µM)

> print(dat)
                                   molecule                               system.name  endpoint.result
1  O=C1N[C@@H]2COC[C@@H]2Oc2ncc(F)cc2[C@H]2CCON2c2ccn3ncc1c3n2 [WX008A]  Ba/F3 LMNA-NTRK1-WT stably transfected cell line (Homo sapiens)           0.0016

(1) CC(=O)N1CC[C@H]2NC(=O)c3cnn4ccc(nc34)N3OCC[C@@H]3c3cc(F)cnc3O[C@H]2C1 [WX014B]
(2) O=C1N[C@@H]2CNC[C@@H]2Oc2ncc(F)cc2[C@H]2CCON2c2ccn3ncc1c3n2 [WX012B]
Prompt line: For the pair 1 and 2 , which entry has the numerically smaller recorded GI50? Kindly give the label for the entry you pick.
Response line: 1
(1: 0.0804 µM, 2: 0.259 µM)

(1) CCN1CC[C@H]2NC(=O)c3cnn4ccc(nc34)N3OCC[C@@H]3c3cc(F)cnc3O[C@H]2C1 [WX016A]
(2) O=C1N[C@@H]2COCC[C@@H]2Oc2ncc(F)cc2[C@H]2CCON2c2ccn3ncc1c3n2 [WX010B]
Prompt line: Between item 1 and item 2 , which reported GI50 is smaller? Could you answer with the label of the item you picked?
Response line: 2
(2: 0.0058 µM, 1: 0.0658 µM)

(P) CN1CC[C@H]2NC(=O)c3cnn4ccc(nc34)N3OCC[C@@H]3c3cc(F)cnc3O[C@H]2C1 [WX011A]
(Q) O=C1NC2(CC2)COc2ncc(F)cc2[C@H]2CCON2c2ccn3ncc1c3n2 [WX002A]
(R) O=C1NC2(CC2)COc2ccc(F)cc2[C@H]2CCON2c2ccn3ncc1c3n2 (single isomer, unassigned) [WX003A]
Prompt line: Put the items in sequence by GI50, from largest down. Give your ranking as a list of the labels in the requested order.
Response line: P, R, Q

(1) C[C@@H]1COc2ncc(F)cc2[C@H]2CCON2c2ccn3ncc(c3n2)C(=O)N1 [WX004A]
(2) O=C1NC2(COC2)COc2ncc(F)cc2[C@H]2CCON2c2ccn3ncc1c3n2 [WX006A]
Prompt line: Consider 1 and 2 . Which of these has its GI50 at a higher number? Selection: enter the item's label.
Response line: 2
(2: 0.0235 µM, 1: 0.00769 µM)

====

Experiment: In vivo pharmacokinetic test in mice
Design: species or system male CD-1 mice
Settings: male, CD-1, mouse, plasma, IV dose of 3 mg/kg, read-out: Half life T1/2 (converted)
Description: Experimental object: male CD-1 mice aged 7-9 weeks were used as the experimental animals, the LC/MS/MS method was used to determine the drug concentrations in plasma at different time points after single intravenous (IV) and intragastric (PO) administration of the compounds, in vivo pharmacokinetic behaviors of the compounds of the present disclosure in mice were studied, and pharmacokinetic characteristics thereof were evaluated. […]
reported metric: half-life (min)

Examples with answers:
> print(dat)
                                   molecule  reported.metric  endpoint.result
1  C[C@@H]1COc2ncc(F)cc2[C@H]2CCON2c2ccn3ncc(c3n2)C(=O)N1 [WX004A]        half-life             44.4
2  O=C1N[C@@H]2COC[C@@H]2Oc2ncc(F)cc2[C@H]2CCON2c2ccn3ncc1c3n2 [WX008A]        half-life             68.4
3  C[C@H]1CNC(=O)c2cnn3ccc(nc23)N2OCC[C@@H]2c2cc(F)cnc2O1 [WX005B]        half-life               30

(P) O=C1N[C@@H]2CCC[C@@H]2Oc2ncc(F)cc2[C@H]2CCON2c2ccn3ncc1c3n2 [WX007A]
(Q) O=C1NC2(COC2)COc2ncc(F)cc2[C@H]2CCON2c2ccn3ncc1c3n2 [WX006A]
Prompt line: # min-compare on half-life between P and Q Give the label of your selection.
Response line: Q
(Q: 33.6 min, P: 52.8 min)

Where do the numbers come from? From patent US11464780B2.
